- assay.procedure: endothelial E-selectin expression blockers – imaging, HUVEC, immunofluorescence, MLSMR starter and 10KST1 sets, primary screen (AID 487);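 note: 100% = median nuclei count of all wells on the same plate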
- particulars: HUVEC TNFalpha-induced E-selectin immunofluorescence imaging, at 2 µM; measured here: cell number, toxicity
measured.attribute: nuclei count (%)
Value expressed in %; do not type the unit.

# annotated cases, reported nuclei count shown
molecule	nuclei count / %
Cc1ccc(C2Nc3ccccc3-c3nc4ccccc4n32)o1 (stereo unspecified)	80.6
Cc1occc1-c1nnc(SCC(=O)c2ccc(F)cc2)n1Cc1ccco1	107

Prompt: Query: nuclei count; subject: Cc1ccc(Nc2nc(CSc3nnc(-c4cccs4)o3)cs2)cc1
Response: 113

Prompt: Query: nuclei count; subject: CCc1c(C)n([O-])c2c([n+]1=O)CCC2
Response: 111

Prompt: Query: nuclei count; subject: CCOC(=O)C1CN(S(=O)(=O)c2ccc(C)cc2)CCN1S(=O)(=O)c1ccc(C)cc1 (stereo unspecified)
Response: 122

Prompt: Query: nuclei count; subject: CCOC(=O)Nc1ccc(NS(=O)(=O)c2ccc(C)cc2)cc1
Response: 134

---

- system: Voltage-gated potassium channel subunit beta-2 (Rattus norvegicus) (UniProt P62483)
- Sequence (P62483 whole entry, looked up): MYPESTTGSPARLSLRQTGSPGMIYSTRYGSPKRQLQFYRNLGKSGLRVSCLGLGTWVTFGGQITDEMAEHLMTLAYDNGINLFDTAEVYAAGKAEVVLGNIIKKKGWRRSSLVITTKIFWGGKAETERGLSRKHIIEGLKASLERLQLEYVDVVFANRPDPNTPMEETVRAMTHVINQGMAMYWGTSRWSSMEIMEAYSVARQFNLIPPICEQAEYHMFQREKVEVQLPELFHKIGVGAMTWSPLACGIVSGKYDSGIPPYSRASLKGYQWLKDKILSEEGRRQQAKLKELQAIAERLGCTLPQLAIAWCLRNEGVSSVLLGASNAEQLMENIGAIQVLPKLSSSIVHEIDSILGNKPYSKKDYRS
- assay.procedure: enhancers of rat Kvbeta2 NADPH turnover – biochemical, NADPH fluorescence, primary screen (AID 623);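 note: fluorescence intensity change per second fitted from 20 to 320 s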
- particulars: Recombinant KvBeta, NADPH fluorescence decrease slope, 10 min; at 10 µM; stronger effect = lower value
// values below are reported NADPH fluorescence slope
Just the number, please, no unit attached.

compound	value.observed
O=c1[nH]c(SCc2ccccc2Cl)nc2c1CCCC2	-2.4e-06

Prompt: Query: NADPH fluorescence slope; subject: Cc1ccc(S(=O)(=O)NCC(=O)N(CC(=O)NCc2ccccc2)CC2CCCO2)cc1 (stereo unspecified)
Response: 1.2e-05

Prompt: Query: NADPH fluorescence slope; subject: CCOC(=O)CN(C(=O)CSc1nnc(-c2ccncc2)n1CCCN(C)C)c1ccccc1
Response: -1.7e-05

---

- assay.procedure: reduction of polyQ htt aggregates in cells – imaging, exon1htt(103Q)mCFP cells, high-content imaging, primary screen (AID 483);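 note: compound exposure lasted 3 days before fixation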
- particulars: exon1htt(103Q)mCFP cell line, aggregate imaging, at 2 µM; stronger effect = higher value
measured.attribute: inhibition of aggregation (%)
Value expressed in %; do not type the unit.

# annotated cases, reported inhibition of aggregation shown
compound	u	inhibition of aggregation
COc1ccccc1C(=O)Nc1ccc(S(=O)(=O)N2CCCC2)cc1	%	7.3
COc1ccccc1CNC(=O)C1CCCN(S(=O)(=O)c2cccc3cccnc23)C1 (stereo unspecified)	%	-33.4
CC(=O)c1c(C)oc2ccc(NS(=O)(=O)c3ccc(O)c(C(=O)O)c3)cc12	%	-7.5
CCOC(=O)c1ccc(NCc2nc3ccccc3[nH]2)cc1	%	-14.3
CCOC(=O)C1=C(C)N=c2s/c(=C\c3cccn3C)c(=O)n2C1c1cccc(OC)c1OC (stereo unspecified)	%	0.2

Prompt: Query: inhibition of aggregation; subject: O=C(NCCC1=CCCCC1)N[C@@H](Cc1ccccc1)C(=O)O
Response: -1.8

Prompt: Query: inhibition of aggregation; subject: CCCC(=O)Nc1cccc(NC(=O)CN2CCN(c3ccccc3OC)CC2)c1
Response: 17.6

Prompt: Query: inhibition of aggregation; subject: CCOC(=O)N1CCC(N(CCCOC)C(=O)Nc2ccc(CC)cc2)CC1
Response: -21.3

Prompt: Query: inhibition of aggregation; subject: O=C(Nc1sc2c(c1C(=O)NCc1ccco1)CCCC2)c1ccc2c(c1)OCO2
Response: 2.5

Prompt: Query: inhibition of aggregation; subject: COc1ccc(CCNc2oc(COc3ccccc3Cl)nc2C#N)cc1OC
Response: -3

Prompt: Query: inhibition of aggregation; subject: CCOC(=O)C1CCCN(CCC(C)c2ccccc2)C1 (stereo unspecified)
Response: 2.6

Prompt: Query: inhibition of aggregation; subject: COc1nc(NCCc2ccc(OC)c(OC)c2)nc(NC(C)(C)CO)n1
Response: 13.7

Prompt: Query: inhibition of aggregation; subject: CCOC(=O)C(NC(=O)c1ccccc1)(Nc1cc(C)on1)C(F)(F)F (stereo unspecified)
Response: -4.6

Prompt: Query: inhibition of aggregation; subject: c1ccc(CN2C3=NCCCN3c3ccccc32)cc1
Response: -10.1
